Value source: PubChem BioAssay (Tox21)

Assay: qHTS RealTime-Glo MT Cell Viability Assay in HEK293 cells - 16 hour (AID 1224872); further: nearly all actives have a fitted effect of over 50% in size
Conditions: RealTime-Glo luminescence; series mostly up to 76.8 µM
Inconclusive results are not listed. Active and inactive are the calls of the source. The call rests on the fitted dose curve; in most records, active means well fitted cell-killing curve with a large enough effect in the repeat runs; inconclusive means weak or mixed curves, or effect the other way; inactive means flat fitted curve, though single readings scatter.
Outcomes: active, inactive

Compound: c1ccc(C2CC2)c(OCC2=NCCN2)c1
Class Name: inactive

Compound: CCCCCCCCCC(=O)O[C@H]1CC[C@H]2[C@@H]3CCC4=CC(=O)CC[C@@H]4[C@H]3CC[C@]12C
Class Name: inactive

Compound: N#C/C(N)=C(/N)C#N
Class Name: inactive

Compound: O=[N+]([O-])c1ccccc1CCl
Class Name: inactive

Compound: C#CCOC(C(=O)OCCN(C)C)(c1ccccc1)c1ccccc1
Class Name: inactive

Compound: O=C(O)CC(Cl)C(=O)O (configuration not stated)
Class Name: inactive

Compound: O=Cc1ccc2c(c1)OCO2
Class Name: inactive

Compound: C=CC[C@]1(O)CC[C@H]2[C@@H]3CCC4=CC(=O)CCC4=C3C=C[C@@]21C
Class Name: active

Compound: CCCN(CCC)c1c([N+](=O)[O-])cc(S(C)(=O)=O)cc1[N+](=O)[O-]
Class Name: active

Compound: O=C1C(Cl)C(CCl)CN1c1cccc(C(F)(F)F)c1 (configuration not stated)
Class Name: active

Compound: CCC(COC(=O)c1cc(OC)c(OC)c(OC)c1)(c1ccccc1)N(C)C (configuration not stated)
Class Name: active

Compound: COC(=O)C(Cl)C(=O)OC
Class Name: inactive

Compound: CC1(C)[C@H](C=C(Cl)Cl)[C@@H]1C(=O)O[C@@H](C#N)c1cccc(Oc2ccccc2)c1
Class Name: inactive

Compound: NS(=O)(=O)C(F)(F)C(F)(F)C(F)(F)C(F)(F)C(F)(F)C(F)(F)C(F)(F)C(F)(F)F
Class Name: inactive

Compound: C=CC(=O)OC
Class Name: inactive

Compound: C[N+](C)(C)CCCl
Class Name: inactive

Compound: CCOc1nc(F)cc2nc(S(=O)(=O)Nc3c(Cl)cccc3Cl)nn12
Class Name: inactive

Compound: CCCCCC[N+](=O)[O-]
Class Name: inactive

Compound: c1cc2ccc3cccc4ccc(c1)c2c34
Class Name: inactive

Compound: C=CCN1CC[C@]23c4c5ccc(O)c4O[C@H]2C(=O)CC[C@@]3(O)[C@H]1C5
Class Name: inactive

Compound: CC(C)(CCl)C(=O)Cl
Class Name: inactive

Compound: COC(=O)C(Br)CBr (configuration not stated)
Class Name: inactive

Compound: CCC(C)(NC(=O)c1cc(Cl)c(C)c(Cl)c1)C(=O)CCl (configuration not stated)
Class Name: active

Compound: CCCCN(N=O)C(=N)N[N+](=O)[O-]
Class Name: inactive

Compound: Cc1cc(=O)[nH]o1
Class Name: inactive

Compound: S=C=NCc1ccccc1
Class Name: active

Compound: CC(=O)C(C)(C)C
Class Name: inactive

----------
Experiment: qHTS assay to identify small molecule antagonists of the androgen receptor (AR) signaling pathway using the MDA cell line in the presence of 0.5 nM R1881 - cell viability counter screen (AID 1259242); further: nearly all actives have a fitted effect of over 45% in size
Settings: MDA-kb2 viability, CellTiter-Fluor protease fluorescence, 16 h; series mostly up to 92.4 µM
Inconclusive results are not listed. The source made the active and inactive calls. The call rests on the fitted dose curve; in most records, active means well fitted cell-killing curve with a large enough effect in the repeat runs; inconclusive means weak or mixed curves, or effect the other way; inactive means flat fitted curve, though single readings scatter.
Outcomes: active, inactive

Molecule: CCOP(=S)(Oc1ccc([N+](=O)[O-])cc1)c1ccccc1 (stereo not given)
Class Name: inactive
//
Molecule: [O-][Cl+]O
Class Name: inactive
//
Molecule: O=C(O)c1ccccc1C(=O)Nc1cccc2ccccc12
Class Name: inactive
//
Molecule: O=C(C(Cl)(Cl)Cl)C(Cl)(Cl)Cl
Class Name: inactive
//
Molecule: Cc1ccc2ccccc2c1
Class Name: inactive
//
Molecule: O=[N+]([O-])c1ccccc1CCl
Class Name: inactive
//
Molecule: S=C=NCc1ccccc1
Class Name: inactive
//
Molecule: CN1C(=O)NC(=O)C(C)(C2=CCCCC2)C1=O (stereo not given)
Class Name: inactive
//
Molecule: O=[Se]=O
Class Name: active
//
Molecule: O=[N+]([O-])c1cc(C(F)(F)F)cc([N+](=O)[O-])c1Cl
Class Name: inactive
//
Molecule: O=C(O)C(F)(F)C(F)(F)C(F)(F)C(F)(F)C(F)(F)C(F)(F)C(F)(F)C(F)(F)C(F)(F)C(F)(F)F
Class Name: inactive
//
Molecule: CCCCCCCCCC(=O)O[C@H]1CC[C@H]2[C@@H]3CCC4=CC(=O)CC[C@@H]4[C@H]3CC[C@]12C
Class Name: inactive
//
Molecule: CCCC(=O)Cl
Class Name: inactive
//
Molecule: O=S1(=O)OC(c2cc(Br)c(O)c(Br)c2)(c2cc(Br)c(O)c(Br)c2)c2ccccc21
Class Name: active
//
Molecule: CC(=O)[C@H]1CC[C@H]2[C@@H]3CC[C@H]4C[C@](C)(O)CC[C@]4(C)[C@H]3CC[C@]12C
Class Name: inactive
//
Molecule: C=CC(=O)OCCCCO
Class Name: inactive
//
Molecule: CCOP(=S)(OCC)Oc1nc(Cl)c(Cl)cc1Cl
Class Name: inactive
//
Molecule: COP(=S)(Oc1cc(Cl)c(Br)cc1Cl)c1ccccc1 (stereo not given)
Class Name: inactive
//
Molecule: CNP(=O)(OC)Oc1ccc(C(C)(C)C)cc1Cl (stereo not given)
Class Name: inactive
//
Molecule: O=S(=O)(Cl)c1ccccc1
Class Name: inactive
//
Molecule: CC(C)(C)c1cc([N+](=O)[O-])cc([N+](=O)[O-])c1O
Class Name: active
//
Molecule: O=C1NCN(c2ccccc2)C12CCN(CCCOc1ccc(F)cc1)CC2
Class Name: inactive
//
Molecule: BrCCCCBr
Class Name: inactive
//
Molecule: CC(=O)C(C)(C)C
Class Name: inactive
//
Molecule: CC(C)(OO)c1ccccc1
Class Name: inactive
//
Molecule: COc1cc(Cl)c(OC)cc1Cl
Class Name: inactive
//
Molecule: CCOC(=O)CBr
Class Name: inactive
//
Molecule: Nc1nc(N)nc(N)n1
Class Name: inactive
//
Molecule: CN(C)c1ccc(N(C)C)cc1
Class Name: inactive
//
Molecule: CCCCN=C=O
Class Name: inactive
//
Molecule: CC(=O)NC1CCSC1=O (stereo not given)
Class Name: inactive
//
Molecule: CCCCCCCCCCOC(=O)c1ccccc1C(=O)OCCCCCCCCCC
Class Name: inactive
//
Molecule: Brc1ccc(Oc2ccccc2)cc1
Class Name: inactive
//
Molecule: CCCCOC(=O)c1ccccc1C(=O)OCc1ccccc1
Class Name: inactive
//
Molecule: O=C1CN=C(c2ccccc2)c2cc(Cl)ccc2N1CC1CC1
Class Name: inactive
//
Molecule: N#Cc1ccc(Cl)cc1
Class Name: inactive
//
Molecule: COP(=O)(OC)O/C(=C/Cl)c1cc(Cl)c(Cl)cc1Cl
Class Name: inactive
//
Molecule: BrCC(Br)C1CCC(Br)C(Br)C1 (stereo not given)
Class Name: inactive
//
Molecule: Clc1ccc(C(OCCN2CCCCC2)c2ccccc2)cc1 (stereo not given)
Class Name: inactive
//
Molecule: C=CCCl
Class Name: inactive
//
Molecule: CO/C=C(/C(=O)OC)c1ccccc1COc1cccc(C(F)(F)F)n1
Class Name: active
//
Molecule: C#CCOC(C(=O)OCCN(C)C)(c1ccccc1)c1ccccc1
Class Name: inactive
//
Molecule: OC(c1ccc(Cl)cc1)(c1ccc(Cl)cc1)c1cccnc1
Class Name: inactive
//
Molecule: CCOP(=O)(OCC)SCCSCC
Class Name: inactive
//
Molecule: CCCCc1c(C)nc(NCC)nc1OS(=O)(=O)N(C)C
Class Name: inactive
//
Molecule: CCCN(CCCl)c1c([N+](=O)[O-])cc(C(F)(F)F)cc1[N+](=O)[O-]
Class Name: inactive
//
Molecule: ClCCCCBr
Class Name: inactive
//
Molecule: ClP(Cl)(Cl)(Cl)Cl
Class Name: inactive
//
Molecule: CCO[C@H]1O[C@@H]2OC3(C)CC[C@H]4[C@H](C)CC[C@@H]([C@H]1C)[C@@]24OO3
Class Name: inactive
//
Molecule: C(=NC1CCCCC1)=NC1CCCCC1
Class Name: active
//
Molecule: C=CC(=O)OCC(C)O (stereo not given)
Class Name: inactive
//
Molecule: CNC(C)Cc1ccccc1OC (stereo not given)
Class Name: inactive
//
Molecule: CN1[C@@H]2CC[C@H]1CC(OC(=O)c1cc(Cl)cc(Cl)c1)C2 (stereo not given in full)
Class Name: inactive
//
Molecule: Nc1ccc(N=Nc2ccc(-c3ccc(N=Nc4c(S(=O)(=O)O)cc5cc(S(=O)(=O)O)c(N=Nc6ccccc6)c(O)c5c4N)cc3)cc2)c(N)c1
Class Name: inactive
//
Molecule: C=C(C#N)CCC#N
Class Name: inactive

----------
Molecular target: Glucocorticoid receptor (Homo sapiens) (UniProt P04150)
Sequence (P04150 whole entry, looked up): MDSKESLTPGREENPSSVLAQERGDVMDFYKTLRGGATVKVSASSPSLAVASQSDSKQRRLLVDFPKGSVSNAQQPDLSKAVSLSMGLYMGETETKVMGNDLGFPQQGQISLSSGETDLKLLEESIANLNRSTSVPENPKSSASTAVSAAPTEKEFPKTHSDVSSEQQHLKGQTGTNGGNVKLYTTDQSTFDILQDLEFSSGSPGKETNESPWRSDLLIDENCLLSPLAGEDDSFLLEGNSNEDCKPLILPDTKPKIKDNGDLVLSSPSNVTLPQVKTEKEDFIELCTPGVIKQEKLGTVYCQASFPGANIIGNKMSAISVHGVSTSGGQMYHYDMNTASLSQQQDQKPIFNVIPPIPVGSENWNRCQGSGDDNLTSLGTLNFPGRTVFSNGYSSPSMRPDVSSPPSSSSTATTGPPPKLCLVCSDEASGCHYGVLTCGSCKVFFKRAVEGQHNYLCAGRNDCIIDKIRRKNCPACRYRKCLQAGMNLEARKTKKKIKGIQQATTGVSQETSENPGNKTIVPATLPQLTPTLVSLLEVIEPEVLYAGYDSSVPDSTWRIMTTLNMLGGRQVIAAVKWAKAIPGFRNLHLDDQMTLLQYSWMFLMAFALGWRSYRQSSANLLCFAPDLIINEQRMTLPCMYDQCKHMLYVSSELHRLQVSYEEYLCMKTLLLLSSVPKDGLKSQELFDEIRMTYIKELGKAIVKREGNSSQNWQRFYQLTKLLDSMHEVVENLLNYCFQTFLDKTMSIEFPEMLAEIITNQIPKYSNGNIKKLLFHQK
Assay: qHTS assay to identify small molecule antagonists of the glucocorticoid receptor (GR) signaling pathway (AID 720692)
Conditions: GR-bla HeLa, beta-lactamase FRET ratio, dexamethasone-stimulated, 18 h; series mostly up to 58.5 µM
Results filed as inconclusive are left out. Calls of active or inactive are those of the source. Calls follow the shape of the dose curve; as a rule, active = well fitted inhibition curve with a large enough effect in the signal ratio in the repeat runs (not every such curve was filed as active); inconclusive = weak or mixed curves, or effect the other way; inactive = no such curve, though single readings can be large or run the other way; the % refers to the signal ratio.
Outcomes: active, inactive

Compound: Clc1ccc(C(OCCN2CCCCC2)c2ccccc2)cc1 (stereo unspecified)
Class Name: inactive

Compound: CCCCC(CC)COP(=O)(Oc1ccccc1)Oc1ccccc1 (stereo unspecified)
Class Name: inactive

Compound: O=C(Nc1ccccc1)Nc1ccnc(Cl)c1
Class Name: active

Compound: CCCCCCCCOC(=O)c1ccc(C(=O)OCCCCCCCC)c(C(=O)OCCCCCCCC)c1
Class Name: inactive

Compound: CC/C(=N\OC/C=C/Cl)C1=C(O)CC(C2CCOCC2)CC1=O (stereo unspecified)
Class Name: inactive

Compound: O=C1CN=C(c2ccccc2)c2cc(Cl)ccc2N1CC1CC1
Class Name: active

Compound: O=C(O)C(F)(F)C(F)(F)C(F)(F)C(F)(F)C(F)(F)C(F)(F)C(F)(F)C(F)(F)C(F)(F)F
Class Name: inactive

Compound: N#Cc1ccc(Cl)cc1
Class Name: inactive

Compound: CCCC(Cn1cncn1)c1ccc(Cl)cc1Cl (stereo unspecified)
Class Name: active

Compound: C[C@@H]1CC[C@H]2[C@@H](C)C(=O)O[C@@H]3O[C@@]4(C)CC[C@@H]1[C@]32OO4
Class Name: inactive

Compound: O=C(O)CC(Cl)C(=O)O (stereo unspecified)
Class Name: inactive
